System: MDA-MB-231
Test: Growth inhibition of human MDA-MB-231 cells by sulforhodamine B assay
Type: functional
Active and inactive are the calls of the source. No cut-off for these calls is given here.
Measurement Name: GI50

Some compounds with known GI50 results, for comparison:
// query May I ask what GI50 has been recorded for CCCCCCCCCCCCCCCCCCCCCCCC(=O)N1CC[N+](C)(C)CC1 ?
// result inactive

// query Record request: GI50 value, item CCCCCCCCCCCCCCCCCCOP(=O)([O-])OC1CC[N+](C)(C)CC1
// result 2.86 µM

// query Which GI50 reading was recorded for the compound C=CC[N+]1(C)CCN(C(=O)CCCCCCCCCCCCCCCCCCCCC)CC1 ?
// result 3.16 µM

// query Dear colleague, I am looking for the recorded GI50 of the following compound: CCCCCCCCCCCCCCCCCCCCCC(=O)N1CC[N+](C)(CC)CC1
// result 2.01 µM

// query Any idea what GI50 was measured for C=CC[N+]1(C)CCN(C(=O)CCCCCCCCCCCCCCC)CC1 ?
// result inactive

New cases:
// query Looking for the measured GI50 of CCCCCCCCCCCCCC(=O)N1CC[N+](C)(C)CC1 , can you help?
// result 0.89 µM

* * *

Biological target: Rho-related GTP-binding protein RhoB (Homo sapiens) (UniProt P62745)
Sequence (P62745 whole entry): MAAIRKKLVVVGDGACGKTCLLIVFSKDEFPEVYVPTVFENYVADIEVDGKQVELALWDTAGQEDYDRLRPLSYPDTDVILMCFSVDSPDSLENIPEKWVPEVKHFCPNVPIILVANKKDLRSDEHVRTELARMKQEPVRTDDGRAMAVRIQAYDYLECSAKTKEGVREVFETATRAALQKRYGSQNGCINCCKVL
Assay: Transactivation of RhoB expressed in human HeLa cells at 5 uM by dual renilla/firefly luciferase reporter assay
Assay type: cell-based
Activity calls are given as the source filed them. No cut-off for these calls is given here.
Write down one outcome, taken from class 1 (active), class 0 (inactive)

Solved entries:
// query Given CCCCCCCCCCCCCCCC(=O)N1CC[N+](C)(C)CC1 , state the outcome it received in this test.
// result class 1

// query Hello, I am checking results. What call was entered for CCCCCCCCCCCC(=O)N1CC[N+](C)(C)CC1 ?
// result class 0

Next:
// query Hello, I am checking results. What call was entered for CCCCCCCCCC(=O)N1CC[N+](C)(C)CC1 ?
// result class 0

// query Dear colleague, could you share the recorded outcome for CCCCCCCCCCCCCC(=O)N1CC[N+](C)(C)CC1 when you have a moment?
// result class 1

* * *

Test system: ACHN
Assay: Growth inhibition of human ACHN cells by sulforhodamine B assay
Format: functional
Activity calls are given as the source filed them. The calls are words filed in the database; no cut-off is given here.
Measurement Name: GI50

Completed entries (count: 6):
// query Entry under review: CCCCCCCCCCCCCCCCCCCCCC(=O)N1CC[N+](C)(Cc2ccccc2)CC1 . Reported GI50?
// result 4740 nM

// query Name the reported GI50 value associated with the compound CCCCCCCCCC(=O)N1CC[N+](C)(C)CC1
// result inactive

// query Form field: reported GI50 of C=CC[N+]1(CC)CCN(C(=O)CCCCCCCCCCCCCCCCCCCCC)CC1
// result 3380 nM

// query I have this compound here, CCCCCCCCCCCCCC(=O)N1CC[N+](C)(C)CC1 , and I need its recorded GI50.
// result 1010 nM

// query Please give the measured GI50 for this compound: CCCCCCCCCCCCCCCCCCOP(=O)([O-])OC1CC[N+](C)(C)CC1 [PERIFOSINE]
// result 4560 nM

// query Bench note: what GI50 did CCCCCCCCCCCCCCCC(=O)N1CC[N+](CC)(Cc2ccccc2)CC1 show?
// result 920 nM

New cases:
// query Bench note: what GI50 did C=CC[N+]1(C)CCN(C(=O)CCCCCCCCCCCCCCCCCCCCC)CC1 show?
// result 2370 nM

// query Any idea what GI50 was measured for C=CC[N+]1(CC)CCN(C(=O)CCCCCCCCCCCCCCC)CC1 ?
// result 500 nM
